system: BRG-1 (Homo sapiens)
Sequence (P51532 whole entry): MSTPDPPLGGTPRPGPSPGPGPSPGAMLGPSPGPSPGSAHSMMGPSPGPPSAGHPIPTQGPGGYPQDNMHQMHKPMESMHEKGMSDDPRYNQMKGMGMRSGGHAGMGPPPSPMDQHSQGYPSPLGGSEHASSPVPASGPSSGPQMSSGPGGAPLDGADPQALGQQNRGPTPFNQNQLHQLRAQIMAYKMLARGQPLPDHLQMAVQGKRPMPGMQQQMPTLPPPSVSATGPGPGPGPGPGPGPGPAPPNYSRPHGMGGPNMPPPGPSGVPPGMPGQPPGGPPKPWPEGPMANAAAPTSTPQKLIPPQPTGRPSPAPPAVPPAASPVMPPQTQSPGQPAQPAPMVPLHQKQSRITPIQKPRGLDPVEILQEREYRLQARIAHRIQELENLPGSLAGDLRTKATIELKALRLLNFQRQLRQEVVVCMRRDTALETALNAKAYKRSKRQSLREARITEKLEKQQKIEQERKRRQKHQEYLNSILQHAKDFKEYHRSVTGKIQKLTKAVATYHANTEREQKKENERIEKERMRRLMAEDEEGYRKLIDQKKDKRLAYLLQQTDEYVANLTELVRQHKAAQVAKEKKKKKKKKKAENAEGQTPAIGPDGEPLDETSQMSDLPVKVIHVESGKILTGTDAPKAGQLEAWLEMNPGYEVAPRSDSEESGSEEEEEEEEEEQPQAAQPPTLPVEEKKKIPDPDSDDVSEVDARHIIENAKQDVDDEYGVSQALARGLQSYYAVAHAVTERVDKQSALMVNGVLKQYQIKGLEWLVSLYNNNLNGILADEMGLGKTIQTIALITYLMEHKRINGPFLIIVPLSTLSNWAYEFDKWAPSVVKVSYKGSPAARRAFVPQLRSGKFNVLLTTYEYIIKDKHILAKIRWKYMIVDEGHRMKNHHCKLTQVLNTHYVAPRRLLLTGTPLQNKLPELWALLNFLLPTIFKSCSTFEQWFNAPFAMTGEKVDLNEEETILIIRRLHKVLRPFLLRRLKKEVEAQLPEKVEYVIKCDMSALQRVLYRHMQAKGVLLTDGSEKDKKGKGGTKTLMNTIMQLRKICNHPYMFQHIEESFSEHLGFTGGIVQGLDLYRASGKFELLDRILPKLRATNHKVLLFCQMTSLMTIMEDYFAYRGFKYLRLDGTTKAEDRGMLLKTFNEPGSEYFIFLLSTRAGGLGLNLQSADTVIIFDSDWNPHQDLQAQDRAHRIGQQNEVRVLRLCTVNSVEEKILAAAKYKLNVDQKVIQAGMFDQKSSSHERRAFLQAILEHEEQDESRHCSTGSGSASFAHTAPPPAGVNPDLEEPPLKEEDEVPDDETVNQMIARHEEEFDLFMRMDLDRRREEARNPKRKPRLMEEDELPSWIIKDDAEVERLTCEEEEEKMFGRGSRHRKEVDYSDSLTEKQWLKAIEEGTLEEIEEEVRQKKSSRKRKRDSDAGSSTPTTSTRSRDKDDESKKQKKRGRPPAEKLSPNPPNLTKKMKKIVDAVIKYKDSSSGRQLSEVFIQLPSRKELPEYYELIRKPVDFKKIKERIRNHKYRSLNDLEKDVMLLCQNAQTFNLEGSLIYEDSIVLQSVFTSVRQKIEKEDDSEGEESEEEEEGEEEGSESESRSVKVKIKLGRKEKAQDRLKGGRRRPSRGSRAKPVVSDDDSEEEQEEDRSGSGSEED
method.summary: ATPase catalytic activity assay of BRG-1 (ADP-Glo)
Type: biochemical
study.conditions: ATPase catalytic activity, ADP-Glo; read-out: BRG1 Max % Inhibition
Listed below: Emax values for each entry.

# example entries with known answers
>>> reported_result("C[C@@H]1CN(c2cccc(-c3csc(NC(=O)CNC(=O)c4cccc(C5(CF)COC5)c4)n3)c2)C[C@H](C)O1 [Compound 149]")
"> 70%"
>>> reported_result("COc1cccc(-c2csc(NC(=O)CNC(=O)c3ccc4c(c3)C(C)(C#N)CNC4)n2)c1 (centres unmarked) [Compound 311]")
"> 95%"
>>> reported_result("C[C@@H]1CN(c2cccc(-c3csc(NC(=O)CNC(=O)c4ccc5c(c4)[C@@](C)(CO)CCO5)n3)c2)C[C@H](C)O1 [Compound 166]")
"> 50%"

Form field Emax, entry C[C@@H]1CN(c2cccc(-c3csc(NC(=O)CNC(=O)c4cccc([C@]5(F)C[C@@H](O)C5)c4)n3)c2)C[C@H](C)O1 [Compound 151] : > 95%

Form field Emax, entry C[C@@]1(C#N)COCc2ccc(C(=O)NCC(=O)Nc3nc(-c4cccc([C@@H]5CC5(F)F)n4)cs3)cc21 [Compound 386] : > 95%

Form field Emax, entry CC1(CO)CCc2ccc(C(=O)NCC(=O)Nc3nc(-c4cccc(-c5cccc(C#N)c5)c4)cs3)cc21 (centres unmarked) [Compound 233] : > 80%

Form field Emax, entry CN1CCc2ccc(-c3csc(NC(=O)CNC(=O)c4ccc5c(c4)C(C)(CO)CC5)n3)cc2C1=O (stereo in doubt) [Compound 176] : > 80%

Form field Emax, entry Cc1cc(-c2cccc(-c3csc(NC(=O)CNC(=O)c4cccc(S(=O)(=O)C(C)CN)c4)n3)c2)cc(C)n1 (centres unmarked) [Compound 114] : > 95%

----------
system: BRM (Homo sapiens)
Sequence (P51531 whole entry): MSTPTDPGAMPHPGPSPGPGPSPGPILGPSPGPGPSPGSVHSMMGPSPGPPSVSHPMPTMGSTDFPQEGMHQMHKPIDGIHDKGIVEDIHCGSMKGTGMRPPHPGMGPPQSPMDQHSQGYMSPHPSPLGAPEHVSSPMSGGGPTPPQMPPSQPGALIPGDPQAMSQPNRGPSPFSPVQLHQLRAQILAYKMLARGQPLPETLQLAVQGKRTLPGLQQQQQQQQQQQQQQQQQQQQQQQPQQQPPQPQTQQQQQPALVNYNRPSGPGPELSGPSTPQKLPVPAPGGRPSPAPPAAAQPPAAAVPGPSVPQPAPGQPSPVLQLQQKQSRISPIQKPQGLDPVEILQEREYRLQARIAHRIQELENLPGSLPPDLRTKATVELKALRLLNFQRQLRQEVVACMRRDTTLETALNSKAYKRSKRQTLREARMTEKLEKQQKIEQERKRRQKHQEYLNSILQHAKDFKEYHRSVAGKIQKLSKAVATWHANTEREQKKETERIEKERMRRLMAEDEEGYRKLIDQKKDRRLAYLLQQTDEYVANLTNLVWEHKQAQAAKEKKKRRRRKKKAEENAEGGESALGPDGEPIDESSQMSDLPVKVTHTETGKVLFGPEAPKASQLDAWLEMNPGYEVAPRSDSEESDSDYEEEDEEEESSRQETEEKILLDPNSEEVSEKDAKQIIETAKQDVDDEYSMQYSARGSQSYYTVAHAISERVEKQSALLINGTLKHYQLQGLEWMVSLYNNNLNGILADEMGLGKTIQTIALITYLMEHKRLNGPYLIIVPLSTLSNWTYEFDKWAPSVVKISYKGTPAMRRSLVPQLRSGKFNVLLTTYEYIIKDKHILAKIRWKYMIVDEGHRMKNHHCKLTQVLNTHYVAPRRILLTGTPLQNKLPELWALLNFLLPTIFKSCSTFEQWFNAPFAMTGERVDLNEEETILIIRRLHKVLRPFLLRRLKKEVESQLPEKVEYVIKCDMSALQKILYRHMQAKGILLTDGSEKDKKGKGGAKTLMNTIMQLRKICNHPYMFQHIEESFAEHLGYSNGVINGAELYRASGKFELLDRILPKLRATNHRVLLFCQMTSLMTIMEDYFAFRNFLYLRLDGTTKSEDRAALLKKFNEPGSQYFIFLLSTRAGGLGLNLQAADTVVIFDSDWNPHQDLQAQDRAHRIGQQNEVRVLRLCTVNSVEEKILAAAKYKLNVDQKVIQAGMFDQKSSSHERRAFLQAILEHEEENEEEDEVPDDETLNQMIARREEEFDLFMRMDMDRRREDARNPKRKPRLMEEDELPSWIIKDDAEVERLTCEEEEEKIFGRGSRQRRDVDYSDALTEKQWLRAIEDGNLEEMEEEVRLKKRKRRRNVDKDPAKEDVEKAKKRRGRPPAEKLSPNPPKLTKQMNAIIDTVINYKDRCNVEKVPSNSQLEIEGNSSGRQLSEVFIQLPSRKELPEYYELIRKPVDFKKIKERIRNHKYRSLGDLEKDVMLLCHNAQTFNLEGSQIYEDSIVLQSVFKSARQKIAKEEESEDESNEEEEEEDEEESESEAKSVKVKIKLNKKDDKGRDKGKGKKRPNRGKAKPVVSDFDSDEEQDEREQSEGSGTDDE
method.summary: ATPase catalytic activity assay of BRM (ADP-Glo)
Format: biochemical
study.conditions: read-out: BRM IC50 (μM)*
measured.parameter: IC50

# example entries with known answers
>>> reported_result("C[C@@H]1CN(c2cccc(-c3csc(NC(=O)CNC(=O)c4ccc5c(c4)[C@@H](C)COC5)n3)n2)C[C@H](C)O1 [Compound 320]")
"< 0.1 µM"
>>> reported_result("CNc1cc(-c2cccc(-c3csc(NC(=O)CNC(=O)c4cccc(C(C)(C)CN)c4)n3)c2)ccn1 [Compound 57]")
"< 0.1 µM"
>>> reported_result("CC1COCc2ccc(C(=O)NCC(=O)Nc3nc(-c4cccc(N5C[C@@H](C)O[C@@H](C)C5)n4)cs3)cc21 (stereo partly drawn) [Compound 346]")
"< 0.1 µM"
>>> reported_result("Cc1cc(C(=O)NCC(=O)Nc2nc(-c3cccc(-c4ccncc4)c3)cs2)cc(C(C)(C)CN)c1 [Compound 63]")
"1 to 5 µM"
>>> reported_result("C[C@@]1(C#N)COCc2ccc(C(=O)NCC(=O)Nc3nc(-c4cccc(C(F)F)c4)cs3)cc21 [Compound 398]")
"< 0.1 µM"
>>> reported_result("CC1(C#N)CCOc2ccc(C(=O)NCC(=O)Nc3nc(-c4cccc([C@H]5CC5(F)F)n4)cs3)cc21 (stereo in doubt) [Compound 378]")
"0.1 to 1 µM"

Next, consider the following compound.
Form field IC50, entry C[C@@H]1CN(c2cccc(-c3csc(NC(=O)CNC(=O)c4ccc5c(c4)[C@@](C)(C#N)CC5)n3)n2)C[C@H](C)O1 [Compound 262] : 1 to 5 µM

All values here come from patent US12685735B2.
